Values were extracted from patent US20170112857A1.

- EXPERIMENT_SUMMARY: Single dose ASA pharmacokinetics, IR ASA vs. ER ASA
- Assay type: in vivo, human
- TEST_SETTINGS: human, serum, oral, 5 mg, ASA; single dose 5 mg; healthy adults; read-out: AUClast
REPORTED_ENDPOINT: AUC(0-t)
Returns: string containing the number followed by the unit.

Input: GET /values?readout=AUC(0-t)&item= CC(=O)Oc1ccccc1C(=O)O [IR ASA, acetylsalicylic acid]
Output: 26.8 ng·h/mL

====

- EXPERIMENT_SUMMARY: Single dose ASA pharmacokinetics, IR ASA vs. ER ASA
- Type: in vivo, human
- TEST_SETTINGS: human, serum, oral; ASA; single dose 10 mg; healthy adults
REPORTED_ENDPOINT: Cmax (ng/mL)
The figure you give is taken to be in ng/mL; do not add the unit.

Input: GET /values?readout=Cmax&item= CC(=O)Oc1ccccc1C(=O)O
Output: 63.9

====

- EXPERIMENT_SUMMARY: Single dose ASA pharmacokinetics, IR ASA vs. ER ASA
- Assay type: in vivo, human
- TEST_SETTINGS: human, serum, oral; ASA; single dose 5 mg; healthy adults
REPORTED_ENDPOINT: Tmax (h)
The figure you give is taken to be in h; do not add the unit.

Input: GET /values?readout=Tmax&item= CC(=O)Oc1ccccc1C(=O)O [IR ASA, acetylsalicylic acid]
Output: 1.2

====

- EXPERIMENT_SUMMARY: Single dose ASA pharmacokinetics, IR ASA vs. ER ASA
- Type: in vivo, human
- TEST_SETTINGS: human, serum, oral; ASA; single dose 40 mg; healthy adults
REPORTED_ENDPOINT: Cmax
Returns: string containing the number followed by the unit.

Input: GET /values?readout=Cmax&item= CC(=O)Oc1ccccc1C(=O)O
Output: 228 ng/mL

====

- EXPERIMENT_SUMMARY: Single dose ASA pharmacokinetics, IR ASA vs. ER ASA
- Assay type: in vivo, human
- TEST_SETTINGS: human, serum, oral; ASA; single dose 81 mg; healthy adults
REPORTED_ENDPOINT: Tmax

Input: GET /values?readout=Tmax&item= CC(=O)Oc1ccccc1C(=O)O
Output: 1.4 h

====

- EXPERIMENT_SUMMARY: Single dose ASA pharmacokinetics, IR ASA vs. ER ASA
- Format: in vivo, human
- TEST_SETTINGS: human, serum, oral; ASA; single dose 40 mg; healthy adults
REPORTED_ENDPOINT: Tmax (h)
The figure you give is taken to be in h; do not add the unit.

Input: GET /values?readout=Tmax&item= CC(=O)Oc1ccccc1C(=O)O
Output: 1.4

====

- EXPERIMENT_SUMMARY: Single dose ASA pharmacokinetics, IR ASA vs. ER ASA
- Assay type: in vivo, human
- TEST_SETTINGS: human, serum, oral; ASA; single dose 10 mg; healthy adults
REPORTED_ENDPOINT: Tmax (h)
The figure you give is taken to be in h; do not add the unit.

Input: GET /values?readout=Tmax&item= CC(=O)Oc1ccccc1C(=O)O
Output: 1.5

====

- EXPERIMENT_SUMMARY: Single dose ASA pharmacokinetics, IR ASA vs. ER ASA
- Type: in vivo, human
- TEST_SETTINGS: human, serum, oral, 40 mg, ASA; single dose 40 mg; healthy adults; read-out: AUClast
REPORTED_ENDPOINT: AUC(0-t) (ng·h/mL)
The figure you give is taken to be in ng·h/mL; do not add the unit.

Input: GET /values?readout=AUC(0-t)&item= CC(=O)Oc1ccccc1C(=O)O
Output: 384

====

- EXPERIMENT_SUMMARY: Single dose ASA pharmacokinetics, IR ASA vs. ER ASA
- Type: in vivo, human
- TEST_SETTINGS: human, serum, oral; ASA; single dose 20 mg; healthy adults
REPORTED_ENDPOINT: Tmax
Returns: string containing the number followed by the unit.

Input: GET /values?readout=Tmax&item= CC(=O)Oc1ccccc1C(=O)O
Output: 1.6 h

====

- EXPERIMENT_SUMMARY: Single dose ASA pharmacokinetics, IR ASA vs. ER ASA
- Assay type: in vivo, human
- TEST_SETTINGS: human, serum, oral, 20 mg, ASA; single dose 20 mg; healthy adults; read-out: AUC0-8
REPORTED_ENDPOINT: AUC(0-t) (ng·h/mL)
The figure you give is taken to be in ng·h/mL; do not add the unit.

Input: GET /values?readout=AUC(0-t)&item= CC(=O)Oc1ccccc1C(=O)O
Output: 366
